- PROTOCOL: recombinant barcode read abundance after kanamycin selection (control-corrected) (log10(CPM+1)); higher = more efficient recombination; sequences stand for … in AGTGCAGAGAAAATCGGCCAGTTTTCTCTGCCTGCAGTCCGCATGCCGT…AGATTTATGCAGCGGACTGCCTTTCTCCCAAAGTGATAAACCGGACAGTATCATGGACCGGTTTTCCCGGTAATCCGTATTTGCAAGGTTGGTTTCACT; site = the 11-nt target
OUTCOME MEASURE: recombinant barcode read abundance (log10)

SEQUENCE	OBS VALUE
GCGCATGCTTGGGTTCTAACCTGTTGCCT (site GCGCATGCTAG)	0.788
ATTTGAACTTGGGTTCTAACCTGTTGCCT (site ATTTGAACTAG)	0.086
ACCGACCCTTGGGTTCTAACCTGTTGCCG (site ACCGTCCCTCG)	0.105
CATAACCCTTGGGTTCTAACCTGTTGCAT (site CATAACCCTAT)	1.84
GTGTCACCTTGGGTTCTAACCTGTTGCCT (site GTGTCATCTAG)	0.091
CGTCTACCTTGGGTTCTAACCTGTTGCCT (site CGTCTACCTAG)	0.333
ATGGGTCCTTGGGTTCTAACCTGTTGCCG (site ATAGGTCCTCA)	0.536
GCACAAGCTTGGGTTCTAACCTGTTGCCT (site GCACAAGCTAG)	0.978
GATCGATCTTGGGTTCTAACCTGTTGCTT (site GATCGATCTAG)	0.248
AGTAAGCCTTGGGTTCTAACCTGTTGCCT (site AGTAAGCCTAG)	0.864

====

- PROTOCOL: recombinant barcode read abundance after kanamycin selection (control-corrected) (log10(CPM+1)); higher = more efficient recombination; sequences stand for … in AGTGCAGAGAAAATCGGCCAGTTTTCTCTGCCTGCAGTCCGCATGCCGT…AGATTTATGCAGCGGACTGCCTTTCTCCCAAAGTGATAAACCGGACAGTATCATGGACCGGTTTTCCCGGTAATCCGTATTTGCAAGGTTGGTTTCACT; site = the 11-nt target
OUTCOME MEASURE: recombinant barcode read abundance (log10)

SEQUENCE	OBS VALUE
GAGTCGCCTTGGGTTCTAACCTGTTGCGG (site GAGTGGCCTCC)	0.188
TAGCTCCCTTGGGTTCTAACCTGTTGCCC (site TAGCTCCCTCG)	0.115
CTTCGACCTTGGGTTCTAACCTGTTGCAT (site CTTCGACCTAT)	2.04
CAGTATCCTTGGGTTCTAACCTGTTGCCT (site CACTATCCTAG)	0.0764
TGTCGAGCTTGGGTTCTAACCTGTTGCGG (site TTCCGAGCTCC)	0.00866

====

- PROTOCOL: recombinant UMI read abundance after kanamycin selection (control-corrected) (log10(CPM+1)); higher = more efficient recombination; extreme values may be limits of the assay; sequences stand for … in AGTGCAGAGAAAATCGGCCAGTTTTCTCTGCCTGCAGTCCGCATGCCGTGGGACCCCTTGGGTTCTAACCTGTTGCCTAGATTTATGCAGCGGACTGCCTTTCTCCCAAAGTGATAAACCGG…AGGTTGGTTTCACT; site = the 11-nt donor
Entries annotated with measured recombinant UMI read abundance (log10)

SEQUENCE	recombinant UMI read abundance (log10)
AACGGCCCATGGACCGGTTTTCCCGGTAATCCGTATTTGTT (site AACGGCCCTAA)	0
GGGAATCCATGGACCGGTTTTCCCGGTAATCCGTATTTGAA (site GGCAATCCTTT)	0.00362
GGATGCACATGGACCGGTTTTCCCGGTAATCCGTATTTGTA (site GAATGCACTTA)	0.31
GGATGCACATGGACCGGTTTTCCCGGTAATCCGTATTTGTA (site GTATGCACTTA)	0.439
CGGAACCCATGGACCGGTTTTCCCGGTAATCCGTATTTGTT (site CGGAAACCTAA)	0.0541

Values compiled from the supplement of paper PMC11208160.
